Test system: Escherichia coli TOP10;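 further: peptides expressed intracellularly from a pBAD plasmid library in pooled LB shake-flask culture, induced with 0.3% L-arabinose, DNA abundance read by NGS, three biological replicates, DESeq2 with apeglm shrinkage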
test_details: shrunken log2 fold change of peptide-encoding DNA abundance (4.5 h post-induction vs induction); higher = less antimicrobial activity (less host growth inhibition)
measurement_setup: time post-induction: 4.5 h; library: site-saturation at positions 5, 18, 19, 20
As shown below, each of these sequences has a reported shrunken log2 fold change value.
// return just the number, without any unit appended

Illustrative cases are given below, each with its answer.
# biopolymer_sequence, tested_system, shrunken log2 fold change
data = [
    ("RRIRRRPPRLPRPRPRPAMAPRP", "Escherichia coli TOP10", 0.342),
    ("RRIRPRPPRLPRPRPRPGKGPRP", "Escherichia coli TOP10", 0.0267),
    ("RRIRCRPPRLPRPRPRPECKPRP", "Escherichia coli TOP10", -0.255),
    ("RRIRMRPPRLPRPRPRPKYCPRP", "Escherichia coli TOP10", 0.0472),
    ("RRIRIRPPRLPRPRPRPQCNPRP", "Escherichia coli TOP10", -0.0824),
]

## Input State, in one line, measured shrunken log2 fold change of RRIRPRPPRLPRPRPRPDTSPRP
## Output -0.738

## Input State, in one line, measured shrunken log2 fold change of RRIRNRPPRLPRPRPRPHSDPRP
## Output 0.0373

## Input State, in one line, measured shrunken log2 fold change of RRIRCRPPRLPRPRPRPEAFPRP
## Output 0.13

## Input State, in one line, measured shrunken log2 fold change of RRIRGRPPRLPRPRPRPQEVPRP
## Output 0.00966

## Input State, in one line, measured shrunken log2 fold change of RRIRLRPPRLPRPRPRPAAKPRP
## Output 0.602

## Input State, in one line, measured shrunken log2 fold change of RRIRPRPPRLPRPRPRPFRFPRP
## Output 0.0991
